Hey, just so you know, these numbers are from patent EP4813463A2.

assay: Brain pharmacokinetic studies in rats; assay type: in vivo, Sprague-Dawley rats; details: Sprague-Dawley, rat; systemic (plasma), rats, iv, 3 mg/kg, solution; read-out: AUC
Listed here are compounds together with their documented AUC.
Please reply with the bare figure in ng·h/mL and do not write the unit itself.

Consider the reported AUC for these compounds:
COC(=O)c1cnc(NC(=O)C2CC2)cc1Nc1nn(C)c2ccc([C@H](O)C(F)(F)F)c(OC)c12 [Example 48A]
1530
COC(=O)c1cnc(NC(=O)C2CC2)cc1Nc1nn(C)c2ccc([C@H](OC)C(F)(F)F)c(OC)c12 [Example 45B]
1280
COC(=O)c1cnc(NC(=O)C2CC2)cc1Nc1cnn2ccc([C@H](OC)C(F)(F)F)c(OC)c12
646

Prompt: What measured AUC goes with COC(=O)c1cnc(NC(=O)C2CC2)cc1Nc1cnn2ccc([C@H](O)C(F)(F)F)c(OC)c12 ?
Response: 1290

* * *

target: TYK2-JH2 domain (Homo sapiens, UniProt P29597); construct: JAK1-JH2 domain or TYK2-JH2 domain enzyme in assay buffer; experiment: Binding activity test for JH2 domain of TYK2 (Tb-antibody/tracer FRET); settings: ratio of JAK1 JH2 to TYK2 JH2 binding IC50
Sequence (P29597 589-875 limits assumed): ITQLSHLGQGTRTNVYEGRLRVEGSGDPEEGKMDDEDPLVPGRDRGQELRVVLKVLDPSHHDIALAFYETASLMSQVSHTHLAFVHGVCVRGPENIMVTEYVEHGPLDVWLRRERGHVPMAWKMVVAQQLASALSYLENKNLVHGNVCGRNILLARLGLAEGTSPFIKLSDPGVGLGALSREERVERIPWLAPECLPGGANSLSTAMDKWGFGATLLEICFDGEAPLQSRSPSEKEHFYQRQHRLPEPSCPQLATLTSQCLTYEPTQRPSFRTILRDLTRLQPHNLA
ATTRIBUTE MEASURED: JAK1/TYK2 selectivity
Give the figure by itself; no unit, no explanation.

[2H]C([2H])([2H])NC(=O)c1cnc(NC(=O)[C@@H]2C[C@@H]2F)cc1Nc1nn(C)c2ccc([C@H](O)C(F)(F)F)c(OC)c12 [Example 194]
48.8
CCC(=O)c1cnc(NC(=O)C2CC2)cc1Nc1ccc2[nH]cnc2c1OC [Example 197, reference compound]
6.41
[2H]C([2H])([2H])NC(=O)c1cnc(NC(=O)C2CC23CC3)cc1Nc1nn(C)c2ccc([C@H](O)C(F)(F)F)c(OC)c12 (stereo partly drawn) [Example 199]
61.34

Prompt: What measured JAK1/TYK2 selectivity goes with COC(=O)c1cnc(NC(=O)C2CC2)cc1Nc1nn(C)c2ccc([C@@H](O)C(F)(F)F)c(OC)c12 [Example 48B] ?
Response: 51.13

* * *

Listed here are compounds together with their documented IC50.
biological target: TYK2-JH2 domain (Homo sapiens); construct: JAK1-JH2 domain or TYK2-JH2 domain enzyme in assay buffer; test: Binding activity test for JH2 domain of TYK2 (Tb-antibody/tracer FRET); conditions: JH2 domain enzyme; 60 min at 25°C, then 4°C overnight; read-out: TYK2 JH2 Binding IC50

[2H]C([2H])([2H])n1nc(Nc2cc(NC(=O)C3CC3)ncc2C(=O)OC)c2c(OC)c([C@H](OC)C(F)(F)F)ccc21 [Example 52A]
82 pM
[2H]C([2H])([2H])NC(=O)c1cnc(NC(=O)C2CC2)cc1Nc1cnn2cccc(OC)c12
2800 pM
COC(=O)c1cnc(Nc2ccn(C)n2)cc1Nc1nn(C)c2ccc([C@H](OC)C(F)(F)F)c(OC)c12
176 pM

Prompt: What measured IC50 goes with COC(=O)c1cnc(NC(=O)C2CC2)cc1Nc1nn(C)c2ccc(C(OC)C(C)OC)c(OC)c12 (stereo not shown) ?
Response: 2710 pM

Prompt: What measured IC50 goes with [2H]C([2H])(C)C(=O)c1cnc(NC(=O)C2CC2)cc1Nc1nn(C)c2ccc(C(O)C(F)(F)F)c(OC)c12 (stereo not shown) ?
Response: 163 pM

Prompt: What measured IC50 goes with [2H]C([2H])([2H])NC(=O)c1cnc(Nc2ccc(F)cn2)cc1Nc1cnn2ccc([C@H](O)C(F)(F)F)c(OC)c12 ?
Response: 66 pM

Prompt: What measured IC50 goes with CCC(F)(F)c1cnc(NC(=O)C2CC2)cc1Nc1nccc(-c2cnn(C)n2)c1OC ?
Response: 860 pM

* * *

target: JAK1-JH2 domain (Homo sapiens, UniProt P23458); construct: JAK1-JH2 domain or TYK2-JH2 domain enzyme in assay buffer; assay: Binding activity test for JH2 domain of JAK1 (Tb-antibody/tracer FRET); settings: JH2 domain enzyme; 60 min at 25°C, then 4°C overnight; read-out: JAK1 JH2 Binding IC50
Sequence (P23458 583-855 limits assumed): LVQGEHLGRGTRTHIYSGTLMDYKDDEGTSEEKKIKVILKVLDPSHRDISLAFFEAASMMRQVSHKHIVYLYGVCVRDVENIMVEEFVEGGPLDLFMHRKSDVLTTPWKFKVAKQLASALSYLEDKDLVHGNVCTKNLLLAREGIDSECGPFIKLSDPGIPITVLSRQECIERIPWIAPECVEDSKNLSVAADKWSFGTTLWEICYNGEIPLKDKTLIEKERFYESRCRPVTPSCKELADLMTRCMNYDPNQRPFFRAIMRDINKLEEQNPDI
Listed here are compounds together with their documented pIC50.
Please note pIC50 is a logarithmic value: minus log10 of concentration in mol/L. Answer with that number alone.

Consider the reported pIC50 for these compounds:
CNC(=O)c1nnc(NC(=O)C2CC2)cc1Nc1nc2ccccn2n1
8.04
[2H]C([2H])([2H])NC(=O)c1cnc(NC(=O)C2CC2)cc1Nc1cnn2ccc(C)c(OC)c12
8.18

Then there is this compound:
Prompt: What measured pIC50 goes with COC(=O)c1cnc(NC(=O)C2CC2)cc1Nc1nn(C)c2ccc(C(C)C(F)(F)F)c(OC)c12 (stereo not shown) ?
Response: 6.76

* * *

molecular target: TYK2-JH2 domain (Homo sapiens, UniProt P29597); construct: JAK1-JH2 domain or TYK2-JH2 domain enzyme in assay buffer; assay: Binding activity test for JH2 domain of TYK2 (Tb-antibody/tracer FRET); conditions: ratio of JAK1 JH2 to TYK2 JH2 binding IC50
# note: exactly 40 is not below, so it is NOT MET; use MET for JAK1/TYK2 selectivity strictly under it

COC(=O)c1cnc(NC(=O)C2CC2)cc1Nc1cccc(-c2ccn(C)n2)c1OC
MET

Prompt: Consider CCOC(=O)c1cnc(NC(=O)C2CC2)nc1Nc1cccc(-c2ncn(C)n2)c1OC . Does its JAK1/TYK2 selectivity lie strictly below 40?
Response: NOT MET

Prompt: Consider COC(=O)c1cnc(NC(=O)C2CC2)cc1Nc1nn(C)c2ccc([C@@H](OC)C(F)(F)F)c(OC)c12 [Example 45A] . Does its JAK1/TYK2 selectivity lie strictly below 40?
Response: NOT MET

* * *

test: Kinetic solubility; type: physicochemical; settings: phosphate buffer, pH 7.4, aqueous buffer, kinetic from dmso stock, 100 mM pH 7.4 phosphate buffer, 1% DMSO, room temperature, read-out: Kinetics Solubility_PBS7.4
# binarize solubility kinetic at 2 h: threshold 40 µM inclusive, high side rule met, low side rule not met

Examples from the recorded data:
CNC(=O)c1nnc(NC(=O)C2CC2)cc1Nc1nc2ccc(N3CC(OC)C3)cn2n1 [Example 188, reference compound]
rule not met
[2H]C([2H])([2H])NC(=O)c1cnc(Nc2ccc(F)cn2)cc1Nc1cnn2ccc([C@H](O)C(F)(F)F)c(OC)c12
rule not met
[2H]C([2H])([2H])NC(=O)c1cnc(NC(=O)C2CC2)cc1Nc1nn(C)c2ccc([C@@H](O)C(F)(F)F)c(OC)c12 [Example 49B]
rule not met
[2H]C([2H])([2H])NC(=O)c1cnc(NC(=O)C2CC2)cc1Nc1nn(C)c2ccc([C@H](OC([2H])([2H])[2H])C(F)(F)F)c(OC)c12 [Example 55A]
rule not met

Prompt: # check: solubility kinetic at 2 h of [2H]C([2H])([2H])NC(=O)c1cnc(NC(=O)C2CC23CC3)cc1Nc1cnn2ccc([C@H](O)C(F)(F)F)c(OC)c12 (stereo partly drawn) [Example 32] is greater than or equal to 40 µM
Response: rule met

Prompt: # check: solubility kinetic at 2 h of [2H]C([2H])([2H])NC(=O)c1cnc(NC(=O)C2CC2)cc1Nc1cnn2ccc(CC(F)(F)F)c(OC)c12 is greater than or equal to 40 µM
Response: rule not met

* * *

target: JAK1 (Homo sapiens, UniProt P23458)
Sequence (P23458 875-1153 limits assumed): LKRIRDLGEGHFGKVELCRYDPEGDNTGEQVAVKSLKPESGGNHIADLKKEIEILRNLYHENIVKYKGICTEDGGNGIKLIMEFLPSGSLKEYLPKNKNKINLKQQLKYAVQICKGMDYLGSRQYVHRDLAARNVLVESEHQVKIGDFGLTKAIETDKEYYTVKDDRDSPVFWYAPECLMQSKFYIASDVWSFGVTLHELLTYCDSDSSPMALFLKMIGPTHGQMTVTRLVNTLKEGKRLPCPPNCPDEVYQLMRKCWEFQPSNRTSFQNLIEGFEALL
pIC50: −log10 of the molar value.
Listed here are molecules together with their documented pIC50.

[2H]C([2H])([2H])NC(=O)c1cnc(NC(=O)C2CC2)cc1Nc1nn(C)c2ccc([C@H](OC([2H])([2H])[2H])C(F)(F)F)c(OC)c12 [Example 55A]
< 5.30
[2H]C([2H])([2H])O[C@@H](c1ccc2c(c(Nc3cc(NC(=O)C4CC4)ncc3C(=O)OC)nn2C)c1OC)C(F)(F)F [Example 50B]
< 5.30
[2H]C([2H])([2H])NC(=O)c1cnc(NC(=O)C2CC2)cc1Nc1cnn2ccc([C@H](O)C(F)(F)F)c(OC)c12 [Example 7A]
< 4.70
[2H]C([2H])([2H])NC(=O)c1cnc(NC(=O)C2CC2)cc1Nc1nn(C)c2ccc([C@H](O)C(F)(F)F)c(OC)c12 [Example 49A]
< 5.30

Prompt: // fetch JAK1 (Homo sapiens, UniProt P23458) pIC50 for [2H]C([2H])([2H])NC(=O)c1cnc(NC(=O)C2CC2)cc1Nc1cnn2ccc([C@@H](O)C(F)(F)F)c(OC)c12 [Example 7B]
Response: < 4.70

Prompt: // fetch JAK1 (Homo sapiens, UniProt P23458) pIC50 for COC(=O)c1cnc(NC(=O)C2CC2)cc1Nc1nn(C)c2ccc([C@H](O)C(F)(F)F)c(OC)c12 [Example 48A]
Response: < 5.30

Prompt: // fetch JAK1 (Homo sapiens, UniProt P23458) pIC50 for [2H]C([2H])([2H])NC(=O)c1cnc(NC(=O)C2CC2)cc1Nc1cnn2ccc([C@H](OC)C(F)(F)F)c(OC)c12 [Example 27]
Response: < 4.70

Prompt: // fetch JAK1 (Homo sapiens, UniProt P23458) pIC50 for [2H]C([2H])([2H])NC(=O)c1nnc(NC(=O)C2CC2)cc1Nc1cnn2ccc([C@H](O)C(F)(F)F)c(OC)c12 [Example 30]
Response: < 4.70

Prompt: // fetch JAK1 (Homo sapiens, UniProt P23458) pIC50 for [2H]C([2H])([2H])NC(=O)c1cnc(Nc2cc(C)nc(C)n2)cc1Nc1cnn2ccc([C@H](O)C(F)(F)F)c(OC)c12 [Example 25]
Response: < 4.70

Prompt: // fetch JAK1 (Homo sapiens, UniProt P23458) pIC50 for [2H]C([2H])([2H])NC(=O)c1cnc(Nc2ccn(C)n2)cc1Nc1cnn2ccc([C@H](O)C(F)(F)F)c(OC)c12 [Example 21]
Response: < 4.70
